# STUDY SYSTEM: D(4) dopamine receptor (Homo sapiens)
# PROTOCOL SUMMARY: Agonist activity at human D4.4 receptor in HEK293 cells coexpressing G-alpha-qo5 by FLIPR
pEC50: −log10 of the molar value.
Record Yes whenever pEC50 is at 7 or higher; record No when lower.

[[record]]
smiles_input = "Cc1cccc(C(=O)NCN2CCC(c3nccs3)CC2)c1"
study_system = "D(4) dopamine receptor (Homo sapiens)"
group_label = "Yes"

[[record]]
smiles_input = "O=C(CN1CCC(c2cccc[n+]2[O-])CC1)Nc1cccc(Cl)c1Cl"
study_system = "D(4) dopamine receptor (Homo sapiens)"
group_label = "No"

[[record]]
smiles_input = "Cc1cccc(NC(=O)CN2CCC(c3cccc(O)c3)CC2)c1"
study_system = "D(4) dopamine receptor (Homo sapiens)"
group_label = "Yes"

[[record]]
smiles_input = "O=C(NCN1CCC(c2cccc[n+]2[O-])CC1)c1cc(Cl)cc(Cl)c1"
study_system = "D(4) dopamine receptor (Homo sapiens)"
group_label = "Yes"

[[record]]
smiles_input = "O=C(CN1CCC(c2cccc[n+]2[O-])CC1)NC1CCCCC1"
study_system = "D(4) dopamine receptor (Homo sapiens)"
group_label = "No"

[[record]]
smiles_input = "O=C(NCN1CCC(c2cccc[n+]2[O-])CC1)c1ccccc1"
study_system = "D(4) dopamine receptor (Homo sapiens)"
group_label = "No"

[[record]]
smiles_input = "O=C(NCN1CCC(c2cccc[n+]2[O-])CC1)c1cnccc1Cl"
study_system = "D(4) dopamine receptor (Homo sapiens)"
group_label = "No"

[[record]]
smiles_input = "CCOc1cccc(C(=O)NCN2CCC(c3cccc[n+]3[O-])CC2)c1"
study_system = "D(4) dopamine receptor (Homo sapiens)"
group_label = "No"

[[record]]
smiles_input = "COc1ccccc1C1CCN(CNC(=O)c2cccc(C)c2)CC1"
study_system = "D(4) dopamine receptor (Homo sapiens)"
group_label = "No"

[[record]]
smiles_input = "Cc1ccc(Cl)c(NC(=O)CN2CCC(c3cccc[n+]3[O-])CC2)c1Cl"
study_system = "D(4) dopamine receptor (Homo sapiens)"
group_label = "No"

[[record]]
smiles_input = "Cc1cc(Cl)cc(C)c1NC(=O)CN1CCC(c2ccccn2)CC1"
study_system = "D(4) dopamine receptor (Homo sapiens)"
group_label = "No"

[[record]]
smiles_input = "Cc1cccc(NC(=O)CN2CCC(c3nccs3)CC2)c1"
study_system = "D(4) dopamine receptor (Homo sapiens)"
group_label = "Yes"

[[record]]
smiles_input = "Cc1cccc(NC(=O)CN2CCC(c3cccc[n+]3[O-])CC2)c1"
study_system = "D(4) dopamine receptor (Homo sapiens)"
group_label = "Yes"


====

# PROTOCOL SUMMARY: Bioavailability in Sprague-Dawley rat at 1 mg/kg, sc
# Assay type: ADME, organism-based
# CONDITION: in vivo
PROPERTY MEASURED: bioavailability (%)

[[record]]
smiles_input = "Cc1cccc(C(=O)NCN2CCC(c3ccccn3)CC2)c1"
readout_number = 76

[[record]]
smiles_input = "Cc1cccc(NC(=O)CN2CCC(c3ccccn3)CC2)c1"
readout_number = 57

[[record]]
smiles_input = "Cc1cccc(NC(=O)CN2CCC(c3cccc[n+]3[O-])CC2)c1"
readout_number = 61


====

# STUDY SYSTEM: D(4) dopamine receptor (Homo sapiens, UniProt P21917)
# Sequence (P21917 whole entry): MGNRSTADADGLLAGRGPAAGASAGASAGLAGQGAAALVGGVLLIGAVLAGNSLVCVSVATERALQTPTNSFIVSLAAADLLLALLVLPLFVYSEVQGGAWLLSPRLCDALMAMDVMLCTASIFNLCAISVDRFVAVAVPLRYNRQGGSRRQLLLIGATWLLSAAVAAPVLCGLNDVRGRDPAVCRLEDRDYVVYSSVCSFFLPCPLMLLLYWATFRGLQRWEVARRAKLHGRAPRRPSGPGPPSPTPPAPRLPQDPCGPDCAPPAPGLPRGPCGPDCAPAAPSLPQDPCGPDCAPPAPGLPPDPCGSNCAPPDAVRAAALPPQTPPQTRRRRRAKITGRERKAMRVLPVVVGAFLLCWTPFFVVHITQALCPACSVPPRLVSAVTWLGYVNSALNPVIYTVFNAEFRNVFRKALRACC
# PROTOCOL SUMMARY: Agonist activity at human D4.4 receptor in HEK293 cells coexpressing G-alpha-qo5 by FLIPR
Each record is given condition met if its reported EC50 is strictly below 0.09 µM. Records at or above 0.09 µM are given condition not met.

[[record]]
smiles_input = "CC(C)Oc1cccc(NC(=O)CN2CCC(c3cccc[n+]3[O-])CC2)c1"
group_label = "condition not met"

[[record]]
smiles_input = "Cc1cc(NC(=O)CN2CCC(c3cccc[n+]3[O-])CC2)ccc1F"
group_label = "condition met"

[[record]]
smiles_input = "[O-][n+]1ccccc1C1CCN(Cc2nc3ccccc3[nH]2)CC1"
group_label = "condition met"

[[record]]
smiles_input = "Cc1cccc(NC(=O)CN2CCC(c3ccccc3C#N)CC2)c1"
group_label = "condition met"

[[record]]
smiles_input = "Cc1cccc(NC(=O)CN2CCC(c3ccccc3F)CC2)c1"
group_label = "condition met"

[[record]]
smiles_input = "O=C(CN1CCC(c2cccc[n+]2[O-])CC1)Nc1cccc(Cl)c1"
group_label = "condition met"

[[record]]
smiles_input = "COc1ccccc1C1CCN(CC(=O)Nc2cccc(C)c2)CC1"
group_label = "condition not met"

[[record]]
smiles_input = "O=C(NCN1CCC(c2cccc[n+]2[O-])CC1)c1ccc2ccccc2c1"
group_label = "condition not met"

[[record]]
smiles_input = "Cc1cc(C(=O)NCN2CCC(c3cccc[n+]3[O-])CC2)ccc1F"
group_label = "condition met"

[[record]]
smiles_input = "Cc1cccc(C(=O)NCN2CCC(c3ccccn3)CC2)c1"
group_label = "condition met"

[[record]]
smiles_input = "COc1cccc(C)c1NC(=O)CN1CCC(c2cccc[n+]2[O-])CC1"
group_label = "condition not met"

[[record]]
smiles_input = "Cc1cc(C)cc(NC(=O)CN2CCC(c3cccc[n+]3[O-])CC2)c1"
group_label = "condition met"

[[record]]
smiles_input = "N#Cc1cccc(C(=O)NCN2CCC(c3cccc[n+]3[O-])CC2)c1"
group_label = "condition not met"

[[record]]
smiles_input = "Cc1cccc(C)c1NC(=O)CN1CCC(c2cccc[n+]2[O-])CC1"
group_label = "condition not met"

[[record]]
smiles_input = "O=C(CN1CCC(c2cccc[n+]2[O-])CC1)Nc1cccc(C(F)(F)F)c1"
group_label = "condition met"

[[record]]
smiles_input = "Cc1ccc(Cl)cc1NC(=O)CN1CCC(c2cccc[n+]2[O-])CC1"
group_label = "condition not met"

[[record]]
smiles_input = "Cc1ccc(C(=O)NCN2CCC(c3cccc[n+]3[O-])CC2)cc1C"
group_label = "condition met"

[[record]]
smiles_input = "CCc1cccc(NC(=O)CN2CCC(c3cccc[n+]3[O-])CC2)c1"
group_label = "condition not met"

[[record]]
smiles_input = "O=C(NCN1CCC(c2cccc[n+]2[O-])CC1)c1ccc(OC(F)(F)F)c(Cl)c1"
group_label = "condition not met"

[[record]]
smiles_input = "O=C(CN1CCC(c2cccc[n+]2[O-])CC1)Nc1ccc(F)cc1"
group_label = "condition met"

[[record]]
smiles_input = "O=C(CN1CCC(c2ccccn2)CC1)Nc1c(Cl)cc(Cl)cc1Cl"
group_label = "condition not met"

[[record]]
smiles_input = "COc1cccc(C)c1NC(=O)CN1CCC(c2ccccn2)CC1"
group_label = "condition met"

